- Test system: RAW264.7
- assay: Inhibition of LPS-stimulated NO production in RAW264.7 cells after 24 hrs […]
- Type: functional, cell-based
- run.conditions: Mus musculus, RAW264.7, 24 h
pIC50: −log10 of the molar value.
result.type: pIC50

- COc1ccc(CN2CCC=C(CCC(=O)NO)C2=O)c(OC)c1: 5.28
- O=C(CCC1=CCCN(CCCCc2ccccc2)C1=O)NO: 5.74
- O=C(CCC1=CCCN(CCc2ccccc2)C1=O)NO: 5.37

---

- Tested on: HCT-15
- assay: Growth inhibition of HCT15 cells by SRB assay
- Type: functional, Homo sapiens
- run.conditions: Homo sapiens, HCT-15
Listing of recorded GI50 by entry.
result.type: GI50 (µM)

- O=C(CCC1=CCCN(CCc2ccccc2)C1=O)NO: 8.16
- COc1ccc(CN2CCC=C(CCC(=O)NO)C2=O)c(OC)c1: 7.98
- O=C(CCC1=CCCN(CCCc2ccccc2)C1=O)NO: 4.99
- O=C(CCC1=CCCN(CCCCc2ccccc2)C1=O)NO: 5.37

---

- Test system: RAW264.7
- assay: Inhibition of LPS-stimulated NO production in RAW264.7 cells after 24 hrs […]
- Format: functional, cell-based
- run.conditions: Mus musculus, RAW264.7, 24 h
pIC50: −log10 of the molar value.
// reported pIC50 for each item listed
result.type: pIC50

- O=C(CCC1=CCCN(CCCc2ccccc2)C1=O)NO: 5.57
- O=C(CCCC1=CCCN(CCCCc2ccccc2)C1=O)NO: 5.17
- O=C(CCC1=CCCN(Cc2ccccc2)C1=O)NO: 5.51
- O=C(CCCC1=CCCN(CCCc2ccccc2)C1=O)NO: 5.18

---

The reader will find reported IC50 values listed item by item below.
- target.under.test: Histone deacetylase
- assay: Inhibition of HDAC in HeLa cells by fluorescent activity assay
- Type: cell-based, Homo sapiens
result.type: IC50

• O=C(CC1=CCCN(CCc2ccccc2)C1=O)NO = > 10 µM
• O=C(CCCC1=CCCN(CCCc2ccccc2)C1=O)NO = 3.21 µM
• O=C(CCCC1=CCCN(CCc2ccccc2)C1=O)NO = > 10 µM

---

- System: RAW264.7
- assay: Inhibition of LPS-stimulated TNFalpha production in RAW264.7 cells after 24 hrs by ELISA
- Format: functional, cell-based
- run.conditions: Mus musculus, RAW264.7, 24 h
Could you please mark MET for values of IC50 below 3 µM and NOT MET for values at or above it?

• C=CCN1CCC=C(CCC(=O)NO)C1=O = NOT MET
• O=C(CC1=CCCN(CCCc2ccccc2)C1=O)NO = NOT MET
• O=C(CCCC1=CCCN(CCCCc2ccccc2)C1=O)NO = NOT MET
• O=C(CCC1=CCCN(CCCCc2ccccc2)C1=O)NO = MET
• O=C(CCC1=CCCN(Cc2ccccc2)C1=O)NO = NOT MET
• O=C(CCCC1=CCCN(CCc2ccccc2)C1=O)NO = NOT MET
• COc1ccc(CN2CCC=C(CCC(=O)NO)C2=O)c(OC)c1 = NOT MET
• O=C(CCCC1=CCCN(CCCc2ccccc2)C1=O)NO = NOT MET
• O=C(CC1=CCCN(Cc2ccccc2)C1=O)NO = NOT MET
• O=C(CC1=CCCN(CCc2ccccc2)C1=O)NO = NOT MET
• O=C(CCC1=CCCN(CCc2ccccc2)C1=O)NO = MET
• O=C(CCC1=CCCN(CCCc2ccccc2)C1=O)NO = MET
• O=C(CC1=CCCN(CCCCc2ccccc2)C1=O)NO = NOT MET
• CN1CCC=C(CCC(=O)NO)C1=O = NOT MET
